Test: Absorption spectroscopy (UV/Vis)
Type: physicochemical
Conditions: in aq. PBS, pH 7.4
Where a name gives a salt, the structure may show the parent alone.
assayReadout: Absorption max. (nm)
# output: bare number, implied unit nm

Name the recorded Absorption max. for COP(=O)([C+]1c2ccc(N(C)C)cc2-c2cccc3c(N(C)C)ccc1c23)N(C(C)C)C(C)C.O=C([O-])C(F)(F)F (stereo not shown) [Compound 28] .
644

Returns the measured Absorption max. for the input compound. Input: CCOP(=O)(C1=c2cc3c4c(c2Oc2c1cc1c5c2CCCN5CCC1)CCC[N+]=4CCC3)N(C)CCC(=O)O (stereo not shown) [Compound 19, trifluoroacetate]
659

GET /values?readout=Absorption max.&item= CCN(CC)c1ccc2c(P(=O)(O)O)c(-c3nc4ccccc4s3)c(=O)oc2c1 [Compound 4]
419

Request the reported Absorption max. associated with COP(=O)([O-])C1=c2cc3c4c(c2Oc2c1cc1c5c2CCCN5CCC1)CCC[N+]=4CCC3 [Compound 18]
630

So what does the record say about Absorption max. for CC(C)OP(=O)(OC(C)C)c1c2ccc(N(C)C)cc2[o+]c2cc(N(C)C)ccc12.O=C([O-])C(F)(F)F [Compound 6] ?
629

Sample CCOP(=O)(c1c2ccc(=[N+](C)C)cc-2oc2cc(N(C)C)ccc12)N(C)CCC(=O)O.O=C([O-])C(F)(F)F (stereo not shown) [Compound 10] — what was its Absorption max.?
625

Look at this compound and give its reported Absorption max.. COP(=O)(c1c2ccc(N(C)C)cc2[o+]c2cc(N(C)C)ccc12)N(C(C)C)C(C)C.O=C([O-])C(F)(F)F (stereo not shown) [Compound 7]
628

---

Experiment: Absorption spectroscopy (UV/Vis)
Assay type: physicochemical
Settings: in acetonitrile
Where a name gives a salt, the structure may show the parent alone.
Record form. Attribute: Absorption max.. Fill in for each entry.
Express your answer in nm, writing the number without its unit.

Consider the compound `CC[N+](CC)=c1ccc2c(P(=O)(OC)OC)c3c(oc-2c1)-c1ccc(N(C)C)cc1CC3.O=C([O-])C(F)(F)F` and give its measured Absorption max..
681

I'd like to know its Absorption max.. The compound in question is `CCN(CC)c1ccc2c(P(=O)(OC)OC)c(-c3nc4ccccc4s3)c(=O)oc2c1`
439

Param item = COP(=O)([c+]1c2ccc(N(C)C)cc2sc2cc(N(C)C)ccc21)N(C(C)C)C(C)C.O=C([O-])C(F)(F)F (stereo not shown) ; retrieve measured Absorption max..
654

Looking for the measured Absorption max. of CCOP(=O)(C1=c2cc3c4c(c2Oc2c1cc1c5c2CCCN5CCC1)CCC[N+]=4CCC3)N(C)CCC(=O)O (stereo not shown) [Compound 19, trifluoroacetate] , can you help?
648

Quick check: Absorption max. of CCOP(=O)(CC(=O)[O-])c1c2ccc(N(C)C)cc2[o+]c2cc(N(C)C)ccc12 (stereo not shown) ?
625

Can you look up the measured Absorption max. of `CCN(CC)c1ccc2c(P(=O)(OC(C)(C)C)OC(C)(C)C)c(-c3nc4ccccc4s3)c(=O)oc2c1` for me?
434

Give its Absorption max. value. Item: C=CCOP(=O)(C1=c2cc3c(cc2C(C)(C)c2cc4c(cc21)CCCN4CCOC)=[N+](CCOC)CCC3)N(C(C)C)C(C)C (stereo not shown) [Compound 26, trifluoroacetate]
724

Look up Absorption max. for this compound: `COP(=O)(OC)c1c(-c2nc3ccccc3s2)c(=O)oc2cc(N3CC(O)C3)ccc12`
424

Find the recorded Absorption max. belonging to `COP(=O)([O-])C1=c2cc3c4c(c2Oc2c1cc1c5c2CCCN5CCC1)CCC[N+]=4CCC3` and report it.
596

Query (compound): `CC1=CC(C)=[N+]2C1=C(P(=O)(OC(C)C)OC(C)C)c1c(C)cc(C)n1[B-]2(F)F` ; field requested: Absorption max.
574

Which Absorption max. is reported for this compound? COP(=O)(C1=c2cc3c4c(c2Oc2c1cc1c5c2CCCN5CCC1)CCC[N+]=4CCC3)N(C(C)C)C(C)C (stereo not shown) [Compound 17, trifluoroacetate]
649

Dear colleague, I am looking for the recorded Absorption max. of the following compound: COP(=O)(c1c2ccc(N(C)C)cc2[o+]c2cc(N(C)C)ccc12)N(C(C)C)C(C)C.O=C([O-])C(F)(F)F (stereo not shown)
616

Which Absorption max. value is on record for CCOP(=O)(c1c2ccc(=[N+](C)C)cc-2oc2cc(N(C)C)ccc12)N(C)CCC(=O)O.O=C([O-])C(F)(F)F (stereo not shown) ?
615

Can you share its Absorption max.? I mean this compound: C=CCOC(=O)CCCOP(=O)(OC)[c+]1c2ccc(N(C)C)cc2oc2cc(N(C)C)ccc21 (stereo not shown)
621

Request the reported Absorption max. associated with `CN(C)c1ccc2c(P(=O)(c3ccccc3)c3ccccc3)c3ccc(N(C)C)cc3[o+]c2c1.O=C([O-])C(F)(F)F`
574

Form field: reported Absorption max. of `CC(C)OP(=O)(OC(C)C)c1c2ccc(N(C)C)cc2[o+]c2cc(N(C)C)ccc12.O=C([O-])C(F)(F)F`
617
